Readings of IC50 for the listed compounds
# MEASURED_TARGET: recombinant full-length human hydroxyacid oxidase 1 (HAO1), the equivalents of hGOX (Homo sapiens (Human), UniProt Q9UJM8)
# Sequence (Q9UJM8 whole entry): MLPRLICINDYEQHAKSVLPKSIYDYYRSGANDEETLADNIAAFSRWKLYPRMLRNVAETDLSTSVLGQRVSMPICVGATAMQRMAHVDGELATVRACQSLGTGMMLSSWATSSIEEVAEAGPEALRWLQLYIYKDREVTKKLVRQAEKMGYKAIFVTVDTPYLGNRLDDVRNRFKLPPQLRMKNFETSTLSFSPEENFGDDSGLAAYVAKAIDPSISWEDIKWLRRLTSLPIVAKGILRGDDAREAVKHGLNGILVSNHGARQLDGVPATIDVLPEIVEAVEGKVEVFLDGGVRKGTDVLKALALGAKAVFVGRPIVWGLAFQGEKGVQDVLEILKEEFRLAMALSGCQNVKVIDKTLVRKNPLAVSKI
# TEST_NAME: In-vitro human glycolate oxidase (hGOX) assay (Amplex red fluorescence)
# Format: biochemical
# COND: 6 nM recombinant human GO, 85 μM glycolate, 10 min preincubation

Lab note: CCOC(=O)c1nn[nH]c1Oc1cccc(C#CCC(C)(C)C)c1 gave IC50 of > 1000 nM

Lab note: O=C(O)c1nn[nH]c1Oc1cccc(C#CC2CCOCC2)c1 gave IC50 of 13 nM

Lab note: O=C(O)c1nn[nH]c1Oc1cccc(C#CCC2CC2)c1 gave IC50 of 13 nM

Lab note: O=C(O)c1nn[nH]c1Oc1ccc(C(F)(F)F)c(C#Cc2ccccc2)c1 gave IC50 of 2 nM

Lab note: O=C(O)c1nn[nH]c1Oc1ccc(C#Cc2ccccn2)cc1 gave IC50 of 10 nM

Lab note: Cn1ncc2c(C#Cc3ccc(Oc4[nH]nnc4C(=O)O)cc3)cccc21 gave IC50 of 3 nM

Lab note: CCOC(=O)c1nn[nH]c1Oc1cccc(C#CCC(C)(C)F)c1 gave IC50 of > 1000 nM

Lab note: Cn1cc(C#Cc2ccc(Oc3[nH]nnc3C(=O)O)cc2)ccc1=O gave IC50 of 2 nM

Lab note: O=C(O)c1nn[nH]c1Oc1cccc(C#Cc2ccc(Cl)cc2)c1 gave IC50 of 2 nM

---

# MEASURED_TARGET: glycolate oxidase (GOX) in HepaRG-CAR cells (Homo sapiens (Human), UniProt Q9UJM8)
# Sequence (Q9UJM8 whole entry): as above
# TEST_NAME: HepaRG-CAR cell-based assay for quantitation of glycolate oxidase inhibition (cellular glycolate flux, GC-MS)
ATTRIBUTE_MEASURED: pIC50
Kindly note that pIC50 refers to -log10 of the concentration in mol/L and answer with the value alone.

Lab note: C#Cc1cccc(Oc2[nH]nnc2C(=O)O)c1 [Example 1] gave pIC50 of 5.60

---

Readings of pIC50 for the listed molecules
# MEASURED_TARGET: recombinant full-length human hydroxyacid oxidase 1 (HAO1), the equivalents of hGOX (Homo sapiens (Human), UniProt Q9UJM8)
# TEST_NAME: In-vitro human glycolate oxidase (hGOX) assay (Amplex red fluorescence)
# COND: 6 nM recombinant human GO, 85 μM glycolate, 10 min preincubation
# Protocol: The in-vitro glycolate oxidase assay was performed using recombinant full-length human hydroxyacid oxidase 1 (HAO1), the equivalents of hGOX. […] Purified HAO1 was dissolved in assay buffer consisting of 10 mM NaCl, 110 mM KCl, 2 mM MgCl2, 50 mM HEPES (pH 7.4), and 0.01% Triton™ X-100. […] The fluorescence intensity signal was measured on a VariosKan LUX instrument using an excitation of 560 nm and an emission of 590 nm. The IC50 values were calculated using Graphpad Prism. […]
Kindly note that pIC50 refers to -log10 of the concentration in mol/L and answer with the value alone.

Solved cases (3 shown):
O=C(O)c1nn[nH]c1Oc1cccc(C#CC2CCC3(CC2)OCCO3)c1 : 7.70
O=C(O)c1nn[nH]c1Oc1ccc(C#Cc2nccs2)cc1 : 7.55
CC(C)(F)CC#Cc1cccc(Oc2[nH]nnc2C(=O)O)c1 : 7.40

Lab note: CS(=O)(=O)c1ccc(C#Cc2cccc(Oc3[nH]nnc3C(=O)O)c2)cc1 gave pIC50 of 8.10

---

Readings of log10 of IC50 for the listed compounds
# MEASURED_TARGET: recombinant full-length human hydroxyacid oxidase 1 (HAO1), the equivalents of hGOX (Homo sapiens (Human), UniProt Q9UJM8)
# TEST_NAME: In-vitro human glycolate oxidase (hGOX) assay (Amplex red fluorescence)
# COND: 6 nM recombinant human GO, 85 μM glycolate, 10 min preincubation
Friendly reminder: values = log10 of IC50, unit nM.

N#Cc1cccc(C#Cc2cc(F)cc(Oc3[nH]nnc3C(=O)O)c2)c1 : 0.30

Lab note: O=C(O)c1nn[nH]c1Oc1ccc(C#Cc2ccccc2)cc1 gave log10 of IC50 of 0.85

Lab note: O=C(O)c1nn[nH]c1Oc1cccc(C#CCC2CCCCC2)c1 gave log10 of IC50 of 0.48

Lab note: CC(C)(C)C#Cc1ccc(Oc2[nH]nnc2C(=O)O)cc1 gave log10 of IC50 of 2.32

---

# MEASURED_TARGET: recombinant full-length human hydroxyacid oxidase 1 (HAO1), the equivalents of hGOX (Homo sapiens (Human))
# TEST_NAME: In-vitro human glycolate oxidase (hGOX) assay (Amplex red fluorescence)
# COND: 6 nM recombinant human GO, 85 μM glycolate, 10 min preincubation
# Description: The in-vitro glycolate oxidase assay was performed using recombinant full-length human hydroxyacid oxidase 1 (HAO1), the equivalents of hGOX. […] Purified HAO1 was dissolved in assay buffer consisting of 10 mM NaCl, 110 mM KCl, 2 mM MgCl2, 50 mM HEPES (pH 7.4), and 0.01% Triton™ X-100. […] The fluorescence intensity signal was measured on a VariosKan LUX instrument using an excitation of 560 nm and an emission of 590 nm. The IC50 values were calculated using Graphpad Prism. […]
ATTRIBUTE_MEASURED: pIC50
Kindly note that pIC50 refers to -log10 of the concentration in mol/L and answer with the value alone.

Lab note: O=C(O)c1nn[nH]c1Oc1cc(F)cc(C#Cc2ccccc2)c1 [Example 258] gave pIC50 of 8.70

Lab note: CCCC#Cc1cccc(Oc2[nH]nnc2C(=O)O)c1 [Example 300] gave pIC50 of 8.05

Lab note: O=C(O)c1nn[nH]c1Oc1ccc(C#CC2CCOCC2)cc1 [Example 40] gave pIC50 of 7.40

Lab note: O=C(O)c1nn[nH]c1Oc1ccc(C#Cc2cccc3cn[nH]c23)cc1 [Example 323] gave pIC50 of 8.30

Lab note: Cn1ccnc1C#Cc1ccc(Oc2[nH]nnc2C(=O)O)cc1 [Example 333] gave pIC50 of 8.00

Lab note: CS(=O)(=O)c1ccc(C#Cc2cc(Oc3[nH]nnc3C(=O)O)ccc2F)cc1 [Example 266] gave pIC50 of 8.70

Lab note: COc1ccc(C#Cc2ccc(Oc3[nH]nnc3C(=O)O)cc2)cc1 [Example 280] gave pIC50 of 8.40

Lab note: O=C(O)c1nn[nH]c1Oc1ccc(C#CC2CCC2)cc1 [Example 24] gave pIC50 of 7.80

---

Readings of IC50 for the listed compounds
# MEASURED_TARGET: recombinant full-length human hydroxyacid oxidase 1 (HAO1), the equivalents of hGOX (Homo sapiens (Human), UniProt Q9UJM8)
# TEST_NAME: In-vitro human glycolate oxidase (hGOX) assay (Amplex red fluorescence)
# COND: 6 nM recombinant human GO, 85 μM glycolate, 10 min preincubation
# Protocol: The in-vitro glycolate oxidase assay was performed using recombinant full-length human hydroxyacid oxidase 1 (HAO1), the equivalents of hGOX. […] Purified HAO1 was dissolved in assay buffer consisting of 10 mM NaCl, 110 mM KCl, 2 mM MgCl2, 50 mM HEPES (pH 7.4), and 0.01% Triton™ X-100. […] The fluorescence intensity signal was measured on a VariosKan LUX instrument using an excitation of 560 nm and an emission of 590 nm. The IC50 values were calculated using Graphpad Prism. […]
Answer in nM, number only, no unit symbol.

Cc1cccc(C#Cc2cccc(Oc3[nH]nnc3C(=O)O)c2)n1 : 3

Lab note: O=C(O)c1nn[nH]c1Oc1ccc(C#CCC(F)(F)F)cc1 gave IC50 of 18

Lab note: COc1cccc(C#Cc2ccc(Oc3[nH]nnc3C(=O)O)cc2)c1 [Example 286] gave IC50 of 2

Lab note: O=C(O)c1nn[nH]c1Oc1ccc(C#Cc2cccc(Cl)c2)cc1 gave IC50 of 0.3

Lab note: O=C(O)c1nn[nH]c1Oc1cccc(C#Cc2cccnc2)c1 gave IC50 of 3

Lab note: O=C(O)c1nn[nH]c1Oc1ccc(C#CC(F)(F)F)cc1 gave IC50 of 23

Lab note: CS(=O)(=O)c1ccc(C#Cc2cc(F)cc(Oc3[nH]nnc3C(=O)O)c2)cc1 gave IC50 of 5

Lab note: Cc1cc(C#Cc2cccc(Oc3[nH]nnc3C(=O)O)c2)ccn1 gave IC50 of 1

Lab note: Cn1ccc(C#Cc2ccc(Oc3[nH]nnc3C(=O)O)cc2)cc1=O gave IC50 of 2

---

# TEST_NAME: In-vivo pharmacokinetic evaluation (exposure, AUC fold-over Example 1)
# COND: male CD-1 mice, 10 mg/kg oral gavage in 20% (2-Hydroxypropyl)-β-cyclodextrin, plasma at 0.5, 2 and 6 hours post-dose; AUC expressed as fold-over Example 1
Decision: AUC Fold over Ex. 1 compared against 1; not below it gives TRUE, below it gives FALSE.

// known answers, use as guide
O=C(O)c1nn[nH]c1Oc1cccc(C#CC2CCC2)c1 : TRUE
O=C(O)c1nn[nH]c1Oc1cccc(C#Cc2ccc3[nH]ncc3c2)c1 : FALSE
Cc1cccc(C#Cc2ccc(Oc3[nH]nnc3C(=O)O)cc2)n1 : FALSE

Request: Is the recorded value of AUC Fold over Ex. 1 equal to or greater than 1 for this compound? Cn1ncc2c(C#Cc3cccc(Oc4[nH]nnc4C(=O)O)c3)cccc21
Response: FALSE

Request: Is the recorded value of AUC Fold over Ex. 1 equal to or greater than 1 for this compound? O=C(O)c1nn[nH]c1Oc1cccc(C#Cc2cccc3cn[nH]c23)c1
Response: TRUE

Request: Is the recorded value of AUC Fold over Ex. 1 equal to or greater than 1 for this compound? CS(=O)(=O)c1ccc(C#Cc2cccc(Oc3[nH]nnc3C(=O)O)c2)cc1
Response: FALSE

Request: Is the recorded value of AUC Fold over Ex. 1 equal to or greater than 1 for this compound? CC(C)C#Cc1cccc(Oc2[nH]nnc2C(=O)O)c1
Response: TRUE
